Source of measurements: PubChem BioAssay (EPA / NIEHS)

# assay-explanation: BSK_3C_SRB: Viability Assessment in the BioMAP Diversity Plus: 3C Assay (AID 2283023);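 also: cells read 24 h after compound dosing; fitted both ways against DMSO so a hit may be signal rise or drop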
# cond: primary human endothelial cells (HUVEC)
# Procedure: BSK_3C is a cell-based, multiplexed-readout assay that uses umbilical vein endothelium, a human vascular primary cell, with measurements taken at 24 hours after chemical dosing in a 96-well plate.BSK_3C_SRB is an assay component measured in the BSK_3C assay. It measures 0.1% sulforhodamine related to cell death using Sulforhodamine staining technology.Data from the assay component BSK_3C_SRB was analyzed into 1 assay endpoint. […]
The source made the active and inactive calls. The calls were made as follows: active = hit-call score of the fitted dose curve at least 0.9, where 1 is the maximum; inactive = score below 0.9.
Please answer using one outcome listed in active, inactive

* CC(C)NCC(O)c1ccc(O)c(O)c1 (centres undefined) | inactive
* CCCC[C@H]1CN(CC2CCOCC2)C(=O)OC12CCN(C1(C)CCN(C(=O)c3c(C)ncnc3C)CC1)CC2 | inactive
* CC(=O)OCC(COC(C)=O)OC(C)=O | inactive

Hi, sorry to bother you, what did the test record for CCOCCOCCO ?
inactive

Hi, sorry to bother you, what did the test record for COC(=O)CCC(=O)OC ?
inactive

Hi, sorry to bother you, what did the test record for CCN(CC)CCOc1ccc(C(=C(Cl)c2ccccc2)c2ccccc2)cc1 ?
active

Hi, sorry to bother you, what did the test record for Nc1nc(=S)c2[nH]cnc2[nH]1 ?
inactive

Hi, sorry to bother you, what did the test record for C#CC(O)C(CC)CCCC (centres undefined) ?
inactive

Hi, sorry to bother you, what did the test record for CSc1ccc(Oc2ccc(S(N)(=O)=O)cc2CN(C)C)cc1C ?
inactive

Hi, sorry to bother you, what did the test record for CC(COCC(C)OC(=O)c1ccccc1)OC(=O)c1ccccc1 (centres undefined) ?
inactive
